- System: T. cruzi, strain Tulahuen C4, intracellular amastigotes
- assayName: microbe, parasite or virus in culture
- measurementSetup: read-out: IC50 T. cruzi; strain Tulahuen C4, intracellular amastigotes; means of two independent assays
measuredQuantity: pIC50
# pIC50: negative log10 of molar concentration; output just the value

GET pIC50 where system = T. cruzi, strain Tulahuen C4, intracellular amastigotes and item = CC(=O)OC[C@H]1O[C@@H]([S-])[C@H](OC(C)=O)[C@@H](OC(C)=O)[C@@H]1OC(C)=O.CCP(CC)CC.[Au+] 5.64

----------
Give measured IC50 at 96 h for each item. Keep answers brief.
- assayName: Cytotoxicity on macrophages infected with L. donovani
- Format: cell-based, mouse
- measurementSetup: mouse, macrophages infected with L. donovani; read-out: IC50 Cytotox. mac.inf.
Where a name gives a salt, the structure may show the parent alone.

Provide only the value of recorded IC50 at 96 h for CC(C)/N=c1\cc2n(-c3ccc(Cl)cc3)c3ccccc3nc-2cc1Nc1ccc(Cl)cc1 6.34 µM

Provide only the value of recorded IC50 at 96 h for CC(C)CN(C[C@@H](O)[C@H](Cc1ccccc1)NC(=O)O[C@H]1CCOC1)S(=O)(=O)c1ccc(N)cc1 > 59.3 µM

Provide only the value of recorded IC50 at 96 h for OC(Cn1cncn1)(Cn1cncn1)c1ccc(F)cc1F > 98 µM

Provide only the value of recorded IC50 at 96 h for O=C(O)COCCN1CCN(C(c2ccccc2)c2ccc(Cl)cc2)CC1 (stereo not shown) [Cetirizine (Hydrochloride), Cetirizine] > 70.5 µM

----------
Give measured IC50 for each item. Keep answers brief.
- Test system: intracellular amastigotes of L. donovani strain MHOM-ET-67/L82
- assayName: Activity against Leishmania donovani intracellular amastigotes in mouse peritoneal macrophages
- measurementSetup: Leishmania donovani, Peritoneal macrophage, in Mus musculus, 96 h, read-out: IC50 L. don. intracell

Provide only the value of recorded IC50 for O=C(N/N=C/c1ccc([N+](=O)[O-])o1)c1ccc(O)cc1 [Nifuroxazide] > 10.9 µM

Provide only the value of recorded IC50 for O=C1CN(/N=C/c2ccc([N+](=O)[O-])o2)C(=O)N1 [Nitrofurantoine] > 41.8 µM

Provide only the value of recorded IC50 for Cc1cn([C@H]2C=C[C@@H](CO)O2)c(=O)[nH]c1=O [Stavudine] > 134 µM

Provide only the value of recorded IC50 for CCC[C@@]1(CCc2ccccc2)CC(O)=C([C@H](CC)c2cccc(NS(=O)(=O)c3ccc(C(F)(F)F)cn3)c2)C(=O)O1 [Tipranavir] > 49.8 µM

Provide only the value of recorded IC50 for Cc1nc2ccccn2c(=O)c1CCN1CCC(C(=O)c2ccc(F)cc2)CC1 [Pirenperone] > 76.2 µM

Provide only the value of recorded IC50 for Fc1ccc([C@@H]2CCNC[C@H]2COc2ccc3c(c2)OCO3)cc1 [Paroxetine] > 9.11 µM

Provide only the value of recorded IC50 for c1ccc(-c2ccc(C(c3ccccc3)n3ccnc3)cc2)cc1 (centres unmarked) [Bifonazole] > 32.2 µM

Provide only the value of recorded IC50 for CCC(C)n1ncn(-c2ccc(N3CCN(c4ccc(OCC5COC(Cn6cncn6)(c6ccc(Cl)cc6Cl)O5)cc4)CC3)cc2)c1=O (centres unmarked) [Itraconazole] > 1.42 µM

----------
- Test system: P. falciparum strain K1
- assayName: In vitro activity against P. falciparum, serial drug dilution assay
- measurementSetup: read-out: IC50 P. falc. K1
measuredQuantity: pIC50
# pIC50: negative log10 of molar concentration; output just the value

Provide only the value of recorded pIC50 for CCN(CC)CCCC(C)Nc1ccnc2cc(Cl)ccc12 (stereo not shown) [Chloroquine (Diphosphate), Chloroquine] 6.89
